Test system: CCRIS mutagenicity, Ames/micronucleus/aberration tests
Test: CCRIS mutagenicity studies
Details: Test System: AMES SALMONELLA TYPHIMURIUM; Strain/Indicator: TA102; Metabolic Activation: NONE
Activity calls are given as the source filed them. How the calls were made is not given here.
Log the outcome using a class from TRUE for active, FALSE for inactive

Take a look at these entries with their results.
Outcome logged for `Nc1cc(-c2ccncc2)c[nH]c1=O` in this assay:
FALSE

Would you mind telling me which call this test gave `CN=NC(C)(C)OO` ?
TRUE

Others:
I would be grateful if you could indicate the recorded call for NC(Cn1ccnc1)C(=O)O (stereo not given) .
FALSE

In this assay, the call recorded for `O=C(O)COc1cc(Cl)c(Cl)cc1Cl` was what?
FALSE

Hey, what did the test say about CC(C)(Oc1ccc(C2CC2(Cl)Cl)cc1)C(=O)O (stereo not given) ?
FALSE

----------
System: CCRIS mutagenicity, Ames/micronucleus/aberration tests
Assay: CCRIS mutagenicity studies
Settings: Test System: AMES SALMONELLA TYPHIMURIUM; Strain/Indicator: TA104; Metabolic Activation: RAT, LIVER, S-9, AROCLOR 1254; Method: PREINCUBATION
Calls of active or inactive are those of the source. The rule behind the calls is not given here.
Outcome (select one): class 1 (active), class 0 (inactive)

A selection of reference data follows.
GET /call?item= `CN(N=O)c1ccccc1` returns the recorded outcome of this test.
class 1

Lab log entry: `O=c1[nH]c(=O)n([C@H]2C[C@H](O)[C@@H](CO)O2)cc1CCCCl` — outcome as called in the assay?
class 0

# outcome recorded in this test, key = `O=c1[nH]c(=O)n([C@H]2C[C@H](O)[C@@H](CO)O2)cc1CCCl`
class 0

New cases:
Assay result, entry `Oc1ccccc1O` — outcome?
class 0

----------
Tested on: CCRIS mutagenicity, Ames/micronucleus/aberration tests
Test: CCRIS mutagenicity studies
Settings: Test System: AMES SALMONELLA TYPHIMURIUM; Strain/Indicator: TA98; Metabolic Activation: HAMSTER, LIVER, S-9; Method: PREINCUBATION (PRIVAL METHOD)
Active and inactive are the calls of the source. How the calls were made is not given here.
Observable: mutagenic call

Please review the following examples before continuing.
Field request: mutagenic call | item: `CN(C)c1ccc(N=Nc2ccc3ccccc3c2)cc1`
active; positive

Could you tell me which mutagenic call is on file for `CCOC(=O)C(=NNc1ccc(-c2ccc(NN=C(C(=O)OCC)C(=O)OCC)c(Cl)c2)cc1Cl)C(=O)OCC` ?
inactive; negative

What mutagenic call value was documented for this compound, `Cc1cc(-c2ccc(N/N=C3\C=Cc4c(S(=O)(=O)O)cc(S(=O)(=O)O)c(N)c4C3=O)c(C)c2)ccc1N/N=C1\C=Cc2c(S(=O)(=O)O)cc(S(=O)(=O)O)c(N)c2C1=O` ?
active; positive

What value of measured mutagenic call is listed for `Nc1c(N=Nc2ccc(-c3ccc(N=Nc4cc(S(=O)(=O)O)c5ccccc5c4N)cc3)cc2)cc(S(=O)(=O)O)c2ccccc12` ?
active; positive

So what's the measured mutagenic call for this one? `O=S(=O)(O)c1ccc(N=Nc2c(O)ccc3ccccc23)cc1`
inactive; negative

Continue with the next compound.
Would you kindly share the measured mutagenic call for `CC(=O)Nc1ccc(N=Nc2cc(C)ccc2O)cc1` ?
active; positive

----------
Test system: CCRIS mutagenicity, Ames/micronucleus/aberration tests
Assay: CCRIS mutagenicity studies
Conditions: Test System: AMES SALMONELLA TYPHIMURIUM; Strain/Indicator: TA100; Metabolic Activation: RAT, LIVER, S-9, AROCLOR 1254; Method: STANDARD PLATE
Calls of active or inactive are those of the source. How the calls were made is not given here.
Observable: mutagenic call

Worked examples follow.
Quick check: mutagenic call of `O=C1c2ccccc2C(=O)c2c(O)ccc(O)c21` ?
inactive; negative

If you can, please state the reported mutagenic call value of `CCc1cccc(CC)c1N` .
active; positive

Dear colleague, I am looking for the recorded mutagenic call of the following compound: `NN(c1ccccc1)c1ccccc1`
inactive; negative

// returns reported mutagenic call for input `COc1ccc2oc([N+](=O)[O-])cc2c1N(CCCl)CCCl`
active; positive

Please report the recorded mutagenic call for `CNCCC=C1c2ccccc2CCc2ccccc21` .
inactive; negative

Give mutagenic call for all compounds that follow.
1. N#CCCl
2. O=C(O)c1ccc(ON2P(Oc3ccc(C(=O)O)cc3)N=P(Oc3ccc(C(=O)O)cc3)(Oc3ccc(C(=O)O)cc3)N(Oc3ccc(C(=O)O)cc3)P2Oc2ccc(C(=O)O)cc2)cc1 (configuration not stated)
3. O=P(O)(O)OCC(O)CO (configuration not stated)
4. c1cc2ccc3cc4cccc5ccc6cc(c1)c2c3c6c54
5. C=CCc1ccc(O)c(O)c1
6. ClC(Cl)=C(c1ccc(Cl)cc1)c1ccc(Cl)cc1

["inactive; negative", "inactive; negative", "inactive; negative", "active; positive", "inactive; negative", "inactive; negative"]

Ref: PubChem BioAssay AID1259407
